target_desc: PD-1/PD-L1 interaction (PD-1-Ig / PD-L1-His) (Homo sapiens (Human), UniProt Q9NZQ7)
Sequence (Q9NZQ7 other isoform, or with tags, fused parts or gaps): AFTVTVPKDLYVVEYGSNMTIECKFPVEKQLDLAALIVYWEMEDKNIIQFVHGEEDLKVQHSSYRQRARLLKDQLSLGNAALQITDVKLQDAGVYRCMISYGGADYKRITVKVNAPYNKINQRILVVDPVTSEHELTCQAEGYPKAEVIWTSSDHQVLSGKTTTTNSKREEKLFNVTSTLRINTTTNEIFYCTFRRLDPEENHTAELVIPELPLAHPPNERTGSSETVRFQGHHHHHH
assay_overview: PD-1/PD-L1 Homogenous Time-Resolved Fluorescence (HTRF) binding assay
applied_conditions: PD-1/PD-L1 HTRF binding assay; value given as range class; read-out: Range or IC50
reported_endpoint: IC50

- Cc1c(COc2cc(OCc3cccc(C#N)c3)c(CN3CCCC[C@H]3C(=O)O)cc2Cl)cccc1-c1ccc2c(c1)OCCO2 [Example 1230]: 0.6 to 10 nM
- COc1cc(F)cc(COc2cc(OCc3cccc(-c4ccccc4)c3C)ccc2CNCCNC(C)=O)c1 [Example 1096]: 100 to 20000 nM
- CC(=O)NCCNCc1ccc(OCc2cccc(-c3ccccc3)c2C)cc1OCc1cccc(C)c1F [Example 1070]: 100 to 20000 nM
- Cc1c(COc2ccc(CN[C@](C)(CO)C(=O)O)c(OCc3cccc(C#N)c3)c2)cccc1-c1ccc2c(c1)OCCO2 [Example 1127]: 0.6 to 10 nM
